methodNotes: cAMP Responsive Elements (CRE) small molecule agonists, cell-based qHTS assay: qHTS cell viability counter screen (AID 2060914);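 note: viability read after 3 h of compound exposure; nearly all actives have a fitted effect of over 50% in size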
runConditions: CRE-bla HEK293T viability, CellTiter-Glo luminescence, 5 h; series mostly up to 92.4 µM
Inconclusive results are not listed. Activity calls are given as the source filed them. Calls come from the whole dose curve; as a rule, active = well fitted cell-killing curve with a large enough effect in the repeat runs; inconclusive = weak or mixed curves, or effect the other way; inactive = flat fitted curve, though single readings scatter.
measureName: activity change, negative = cytotoxicity

// known answers, use as guide
compound: O=CCCc1ccccc1
activity change, negative = cytotoxicity: inactive
--
compound: O=c1[nH]ncc2ccccc12
activity change, negative = cytotoxicity: inactive
--
compound: O=Cc1ccccc1[N+](=O)[O-]
activity change, negative = cytotoxicity: inactive
--
compound: CC(C)Oc1ccccc1O
activity change, negative = cytotoxicity: inactive
--
compound: O=S(=O)(O)c1ccc(N=Nc2c(O)ccc3cc(S(=O)(=O)O)ccc23)cc1
activity change, negative = cytotoxicity: inactive

# input // activity change, negative = cytotoxicity lookup, key: C=CC(=O)Nc1cc2c(Nc3ccc(F)c(Cl)c3)ncnc2cc1OCCCN1CCOCC1
# output inactive

# input // activity change, negative = cytotoxicity lookup, key: CC(=O)c1cccnc1
# output inactive

# input // activity change, negative = cytotoxicity lookup, key: c1ccc2c(c1)Cc1ccccc1-2
# output inactive

# input // activity change, negative = cytotoxicity lookup, key: O=c1ccc2ccccc2o1
# output inactive

# input // activity change, negative = cytotoxicity lookup, key: C[C@@H]1O[C@@H](OC[C@H]2O[C@@H](Oc3c(-c4ccc(O)c(O)c4)oc4cc(O)cc(O)c4c3=O)[C@H](O)[C@@H](O)[C@@H]2O)[C@H](O)[C@H](O)[C@H]1O
# output inactive

# input // activity change, negative = cytotoxicity lookup, key: CN(C)c1ccc(CCO)cc1
# output inactive

# input // activity change, negative = cytotoxicity lookup, key: CC(C)c1cccc(C(C)C)c1N
# output inactive

---

methodNotes: cAMP Responsive Elements (CRE) small molecule agonists, cell-based qHTS assay: qHTS cell viability counter screen (AID 2060914);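 note: viability read after 3 h of compound exposure; nearly all actives have a fitted effect of over 50% in size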
runConditions: CRE-bla HEK293T viability, CellTiter-Glo luminescence, 5 h; series mostly up to 92.4 µM
Results filed as inconclusive are left out. Active and inactive are the calls of the source. Calls come from the whole dose curve; as a rule, active = well fitted cell-killing curve with a large enough effect in the repeat runs; inconclusive = weak or mixed curves, or effect the other way; inactive = flat fitted curve, though single readings scatter.
measureName: activity change, negative = cytotoxicity

compound: CCCCCCOc1ccc(N)cc1
activity change, negative = cytotoxicity: inactive
//
compound: O=C1CCC(N2C(=O)c3ccccc3C2=O)C(=O)N1 (stereo not drawn)
activity change, negative = cytotoxicity: inactive
//
compound: Nc1nc2ccccc2[nH]1
activity change, negative = cytotoxicity: inactive
//
compound: CC1CCc2nccnc21 (stereo not drawn)
activity change, negative = cytotoxicity: inactive
//
compound: C=CC(=O)NCOCCCC
activity change, negative = cytotoxicity: inactive
//
compound: CCC(C)(C)C
activity change, negative = cytotoxicity: inactive
//
compound: N[C@@H](Cc1cc(I)c(Oc2cc(I)c(O)c(I)c2)c(I)c1)C(=O)O
activity change, negative = cytotoxicity: inactive
//
compound: O=C(CCCCCCC(=O)Nc1ccccc1)NO
activity change, negative = cytotoxicity: inactive

# input // activity change, negative = cytotoxicity lookup, key: CS(=O)(=O)CCNCc1ccc(-c2ccc3ncnc(Nc4ccc(OCc5cccc(F)c5)c(Cl)c4)c3c2)o1
# output inactive

# input // activity change, negative = cytotoxicity lookup, key: CCCCNS(=O)(=O)c1ccc(C)cc1
# output inactive

# input // activity change, negative = cytotoxicity lookup, key: O=C[C@H](O)[C@H](O)[C@H](O)CO
# output inactive

# input // activity change, negative = cytotoxicity lookup, key: CCCCN(CCCC)CCC(O)c1cc2c(Cl)cc(Cl)cc2c2cc(C(F)(F)F)ccc12 (stereo not drawn)
# output inactive

# input // activity change, negative = cytotoxicity lookup, key: CCCCCCCCOc1ccc(C(=O)c2ccccc2)c(O)c1
# output inactive

---

methodNotes: cAMP Responsive Elements (CRE) small molecule agonists, cell-based qHTS assay: qHTS cell viability counter screen (AID 2060914);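 note: viability read after 3 h of compound exposure; nearly all actives have a fitted effect of over 50% in size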
runConditions: CRE-bla HEK293T viability, CellTiter-Glo luminescence, 5 h; series mostly up to 92.4 µM
Records with an inconclusive call do not appear. The source made the active and inactive calls. The call rests on the fitted dose curve; in most records, active means well fitted cell-killing curve with a large enough effect in the repeat runs; inconclusive means weak or mixed curves, or effect the other way; inactive means flat fitted curve, though single readings scatter.
measureName: activity change, negative = cytotoxicity

// known answers, use as guide
compound: Cc1oc2c(NC(=O)c3c(Cl)cccc3Cl)cccc2c1C(C)(C)O
activity change, negative = cytotoxicity: inactive

compound: CC(C)[C@@H]1CC[C@@H](C)C[C@H]1O
activity change, negative = cytotoxicity: inactive

compound: CCOC(=O)CC(CC(=O)OCC)(OC(C)=O)C(=O)OCC
activity change, negative = cytotoxicity: inactive

compound: CCCN(CCC)C(=O)C(CCC(=O)O)NC(=O)c1ccccc1 (stereo not given)
activity change, negative = cytotoxicity: inactive

compound: O=S(=O)(Oc1ccc(Cl)cc1Cl)c1ccccc1
activity change, negative = cytotoxicity: inactive

# input // activity change, negative = cytotoxicity lookup, key: CCOC(=O)C1=C(C)NC(C)=C(C(=O)OC)C1c1cccc(Cl)c1Cl (stereo not given)
# output inactive

# input // activity change, negative = cytotoxicity lookup, key: O=S1(=O)CCCO1
# output inactive

# input // activity change, negative = cytotoxicity lookup, key: CC(=O)Nc1cc(S(=O)(=O)O)cc2cc(S(=O)(=O)O)c(N=Nc3ccccc3)c(O)c12
# output inactive

---

methodNotes: cAMP Responsive Elements (CRE) small molecule antagonists, cell-based qHTS assay: qHTS cell viability counter screen (AID 2060913); note: nearly all actives have a fitted effect of over 40% in size
runConditions: CRE-bla HEK293T viability, CellTiter-Glo luminescence, 5 h; series mostly up to 92.4 µM
Inconclusive results are not listed. Active and inactive are the calls of the source. Calls come from the whole dose curve; as a rule, active = well fitted cell-killing curve with a large enough effect in the repeat runs; inconclusive = weak or mixed curves, or effect the other way; inactive = flat fitted curve, though single readings scatter.
measureName: viability change, negative = cytotoxic

// known answers, use as guide
cpdSmiles: COC(=O)CC(=O)C(C)(C)C
assayResult: inactive
//
cpdSmiles: O=C(/C=C/c1ccc(O)c(O)c1)O[C@@H]1C[C@](O)(C(=O)O)C[C@@H](O)[C@H]1O
assayResult: inactive
//
cpdSmiles: COC(=O)Nc1nc2ccc(C(=O)c3cccs3)cc2[nH]1
assayResult: inactive
//
cpdSmiles: CC(C)(C)S
assayResult: inactive
//
cpdSmiles: C=C(C)C(=O)OCCOP(=O)(O)OCCOC(=O)C(=C)C
assayResult: inactive

# input // viability change, negative = cytotoxic lookup, key: CCN(CC)CCOC(=O)c1ccc(N)cc1
# output inactive

# input // viability change, negative = cytotoxic lookup, key: CCC(C=O)CC
# output inactive

# input // viability change, negative = cytotoxic lookup, key: CCCCOC(=O)CO
# output inactive

# input // viability change, negative = cytotoxic lookup, key: C=C1C[C@@]23CC[C@H]4[C@@](C)(CCC[C@@]4(C)C(=O)O[C@@H]4O[C@H](CO)[C@@H](O)[C@H](O)[C@H]4O)[C@@H]2CC[C@]1(O[C@@H]1O[C@H](CO)[C@@H](O)[C@H](O[C@@H]2O[C@H](CO)[C@@H](O)[C@H](O)[C@H]2O)[C@H]1O[C@@H]1O[C@H](CO)[C@@H](O)[C@H](O)[C@H]1O)C3
# output inactive

# input // viability change, negative = cytotoxic lookup, key: Cc1ccc(O)cc1
# output inactive

---

methodNotes: cAMP Responsive Elements (CRE) small molecule agonists, cell-based qHTS assay: qHTS cell viability counter screen (AID 2060914);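 note: viability read after 3 h of compound exposure; nearly all actives have a fitted effect of over 50% in size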
runConditions: CRE-bla HEK293T viability, CellTiter-Glo luminescence, 5 h; series mostly up to 92.4 µM
Results filed as inconclusive are left out. Activity calls are given as the source filed them. The call rests on the fitted dose curve; in most records, active means well fitted cell-killing curve with a large enough effect in the repeat runs; inconclusive means weak or mixed curves, or effect the other way; inactive means flat fitted curve, though single readings scatter.
measureName: activity change, negative = cytotoxicity

// known answers, use as guide
compound: O=[N+]([O-])c1ccccc1C(F)(F)F
assayResult: inactive
//
compound: O=C(O)C(c1ccc(Cl)cc1)c1ccc(Cl)cc1
assayResult: inactive
//
compound: Cc1cc(NS(=O)(=O)c2ccc(N)cc2)nc(C)n1
assayResult: inactive
//
compound: CCC1(c2cnc[nH]2)Cc2ccccc2C1
assayResult: inactive
//
compound: CCCCN(CCC(=O)OCC)C(C)=O
assayResult: inactive

# input // activity change, negative = cytotoxicity lookup, key: COCC(C)N (centres undefined)
# output inactive

# input // activity change, negative = cytotoxicity lookup, key: CC(=O)Nc1ccc(C)cc1
# output inactive

# input // activity change, negative = cytotoxicity lookup, key: COC(=O)c1cc(Cl)cc(Cl)c1
# output inactive

# input // activity change, negative = cytotoxicity lookup, key: O=[N+]([O-])c1cc(C2CCCCC2)c(O)c([N+](=O)[O-])c1
# output inactive

# input // activity change, negative = cytotoxicity lookup, key: NC(N)=N/N=C/c1c(Cl)cccc1Cl
# output inactive

# input // activity change, negative = cytotoxicity lookup, key: Cc1c(O)cccc1O
# output inactive

# input // activity change, negative = cytotoxicity lookup, key: Nc1nc2c(ncn2CCC(CO)CO)c(=O)[nH]1
# output inactive

# input // activity change, negative = cytotoxicity lookup, key: CCCCCCCC(OC)OC
# output inactive

# input // activity change, negative = cytotoxicity lookup, key: Cc1onc(-c2c(Cl)cccc2Cl)c1C(=O)N[C@@H]1C(=O)N2[C@@H]1SC(C)(C)[C@@H]2C(=O)O
# output inactive
